MEASURED_TARGET: T1, Human IL-13 (human, UniProt P35225 35-146)
T1 construct: also called human interleukin 13 (Peprotech); the antigen
T1 sequence (P35225 35-146 limits assumed): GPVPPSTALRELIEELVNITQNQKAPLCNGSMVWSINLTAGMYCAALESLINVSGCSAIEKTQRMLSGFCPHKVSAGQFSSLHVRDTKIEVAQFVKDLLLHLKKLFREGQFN
ASSAY_REMARKS: IC50 of the parent scFv divided by IC50 of the clone, biochemical receptor-ligand inhibition assay, purified scFv (second panel)
ASSAY_METRIC: Fld improvement (fold)
# unit: fold | format: bare number

- BINDER: "BAK1183H4 antibody (antibody, V domains shown, also called 1183H04; BAK1183H04) VH: QVQLVQSGAEVKKPGASVKVSCKASGYTFTNYGLSWVRQAPGQGLEWMGWINYDGGNTQYGQEFQGRVTMTTDTSTSTAYMELRSLRSDDTAVYYCARDSSSSWARWFFDLWGRGTLVTVSS VL: SYVLTQPPSVSVAPGKTARIPCGGNIIGSKLVHWYQQKPGQAPVLVIYDDGDRPSGIPERFSGSNSGNTATLTISRVEAGDEADYYCQVWDTGSDPVVFGGGTKLTVL"
  Fld improvement (fold): 1
- BINDER: "13NG0084 (scFv, V domains shown, purified scFv from the mini-recombination library; member of group m20; also called ZZ0SED-F07; copies: 1 + 1) VH: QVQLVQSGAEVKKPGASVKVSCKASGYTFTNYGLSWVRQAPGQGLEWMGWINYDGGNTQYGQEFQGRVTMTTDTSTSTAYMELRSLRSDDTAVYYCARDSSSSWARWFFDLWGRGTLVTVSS VL: SYVLTQPPSVSVAPGKTARIPCGGNLIAARLVHWYQQKPGQAPVLIVFDDEDRPSGIPERFSGSNSGNTATLTISRVEAGDEADYYCQVWDTGSSPVVFGGGTKLTVL"
  Fld improvement (fold): 4.3
- BINDER: "13NG0087 (scFv, V domains shown, purified scFv from the mini-recombination library; member of group m20; also called ZZ0SEF-E05; copies: 1 + 1) VH: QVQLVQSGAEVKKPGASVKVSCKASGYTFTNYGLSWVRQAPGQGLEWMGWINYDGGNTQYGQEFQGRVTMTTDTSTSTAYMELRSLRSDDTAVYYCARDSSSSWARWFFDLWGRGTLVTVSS VL: SYVLTQPPSVSVAPGKTARIPCGGNMVAARLVHWYQQKPGQAPVLIMFDDQDRPSGIPERFSGSNSGNTATLTISRVEAGDEADYYCQVWDTGSLPVVFGGGTKLTVL"
  Fld improvement (fold): 6.5

Field request: Fld improvement | item: 13NG0081 (scFv, V domains shown, purified scFv from the mini-recombination library; member of group m20; the text gives two different numbers for the VH; also called ZZ0SE9-C11; copies: 1 + 1) VH: QVQLVQSGAEVKKPGASVKVSCKASGYTFTNYGLSWVRQAPGQGLEWVGWINYDGGNTQYGQEFQGRVTMTTDTSTSTAYMELRSLRSDDTAVYYCARDSSSSWARWFFDLWGRGTLVTVSS VL: SYVLTQPPSVSVAPGKTARIPCGGNLIGARLVHWYQQKPGQAPVLIVYDDMDRPSGIPERFSGSNSGNTATLTISRVEAGDEADYYCQVWDTGSRPVVFGGGTKLTVL 5.2
